The reported numbers originate from ChEMBL document CHEMBL5316304.

- protocol: AUC (0 to last) in Balb/C mouse at 50 mg/kg, po or 0.1 mg/kg, iv by LC/MS/MS analysis
- Assay type: ADME, organism-based
- Parameters: dose 50 mg/kg, route po
- particulars: in vivo
observation type: AUC(0-t) (ng·h/mL)
The figure you give is taken to be in ng·h/mL; do not add the unit.

For this molecule ( c1ccc(-c2nc(N3CCC(c4ccccn4)C3)c3ccccc3n2)nc1 (racemic) ), measured AUC(0-t) is 9610

----------
- protocol: Cmax in Balb/C mouse at 50 mg/kg, po or 0.1 mg/kg, iv by LC/MS/MS analysis
- Assay type: ADME, organism-based
- Set-up: dose 50 mg/kg, route po
- particulars: in vivo
observation type: Cmax
For clarity, give the value followed by its unit.

For this compound ( c1ccc(-c2nc(N3CCC(c4ccccn4)C3)c3ccccc3n2)nc1 (racemic) ), measured Cmax is 3.36 µg/mL
